target.or.system: WRN (Homo sapiens, UniProt Q14191)
Construct: A His-tagged construct of WRN (AA S2-S1235) was produced and used for the ATPase assay; His; made in house; host or cells: Sf9 insect cells (baculovirus, pFastBac1)
Sequence (Q14191 2-1235): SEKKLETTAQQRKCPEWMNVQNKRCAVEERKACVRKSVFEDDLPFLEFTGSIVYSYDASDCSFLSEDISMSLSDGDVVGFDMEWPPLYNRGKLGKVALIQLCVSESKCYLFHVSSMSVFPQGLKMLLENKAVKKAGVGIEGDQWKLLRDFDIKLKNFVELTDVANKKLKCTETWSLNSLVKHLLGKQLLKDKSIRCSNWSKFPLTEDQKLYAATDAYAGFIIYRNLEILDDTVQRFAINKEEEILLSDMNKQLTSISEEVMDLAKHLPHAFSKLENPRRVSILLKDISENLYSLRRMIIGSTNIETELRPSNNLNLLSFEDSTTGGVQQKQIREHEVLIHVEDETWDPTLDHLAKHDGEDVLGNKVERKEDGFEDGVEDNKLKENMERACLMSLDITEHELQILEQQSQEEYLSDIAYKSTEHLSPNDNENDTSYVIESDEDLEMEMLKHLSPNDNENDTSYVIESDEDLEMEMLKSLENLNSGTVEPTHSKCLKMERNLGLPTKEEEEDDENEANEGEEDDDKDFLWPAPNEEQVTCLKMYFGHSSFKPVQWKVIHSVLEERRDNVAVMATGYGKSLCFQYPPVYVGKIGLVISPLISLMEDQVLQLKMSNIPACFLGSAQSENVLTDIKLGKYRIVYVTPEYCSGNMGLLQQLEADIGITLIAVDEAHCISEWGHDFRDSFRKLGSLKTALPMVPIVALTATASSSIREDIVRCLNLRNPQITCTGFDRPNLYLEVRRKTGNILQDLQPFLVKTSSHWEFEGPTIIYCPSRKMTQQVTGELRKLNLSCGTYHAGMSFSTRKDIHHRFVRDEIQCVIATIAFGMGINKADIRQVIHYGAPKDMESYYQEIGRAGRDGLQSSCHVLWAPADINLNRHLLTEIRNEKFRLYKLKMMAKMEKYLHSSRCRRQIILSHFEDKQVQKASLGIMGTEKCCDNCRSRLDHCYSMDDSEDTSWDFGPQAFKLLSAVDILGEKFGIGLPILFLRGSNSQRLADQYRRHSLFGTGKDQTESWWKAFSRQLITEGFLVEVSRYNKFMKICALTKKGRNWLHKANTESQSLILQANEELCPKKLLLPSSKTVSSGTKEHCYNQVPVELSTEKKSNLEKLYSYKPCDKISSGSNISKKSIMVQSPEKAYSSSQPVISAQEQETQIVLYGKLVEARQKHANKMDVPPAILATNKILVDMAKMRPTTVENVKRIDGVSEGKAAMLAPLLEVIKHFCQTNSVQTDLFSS
test.summary: WRN ATPase activity assay (ADP-Glo)
Type: biochemical
test.context: 1-hr pre-incubation with enzyme; 100 μM ATP, 25 nM forked dsDNA, 1 nM WRN; geometric mean of at least 2 replicates
pIC50: −log10 of the molar value.
Quick reference for pIC50 among some compounds

Check out these entries, answers already filled in.
compound: C=CC(=O)Nc1ccccc1-c1c(CC)nc2n(CC(=O)Nc3ccc(C(F)(F)F)cc3)c3c(OC)cccc3n2c1=O [Example 19]
pIC50: > 7.00

compound: C=CC(=O)Nc1ccccc1-c1c(CC)nc2n(CC(=O)Nc3ccc(F)c(F)c3)c3ccccc3n2c1=O [Example 8]
pIC50: > 7.00

compound: C=CC(=O)Nc1ccccc1-c1c(CC)nc2n(CC(=O)Nc3ccc(F)c(F)c3)c3cc(OC)ccc3n2c1=O [Example 17]
pIC50: 6.30 to 7.00

Let us move to another entry and its pIC50.
Form entry - test system: WRN (Homo sapiens, UniProt Q14191); read-out: pIC50; compound: C=CC(=O)Nc1ccccc1-c1c(CC)nc2n(CC(=O)Nc3ccc(F)cc3C)c3ccccc3n2c1=O [Example 9]
> 7.00
